biological target: C1s (Homo sapiens); construct: prepared from pooled human plasma; from tissue; host or cells: pooled human plasma; assay: C1s assay by inhibition of fluid phase C4 activation; format: biochemical; conditions: Table X; μM concentration at which protease was inhibited 50%; read-out: IC50 C1S
Sequence (P09871 16-688): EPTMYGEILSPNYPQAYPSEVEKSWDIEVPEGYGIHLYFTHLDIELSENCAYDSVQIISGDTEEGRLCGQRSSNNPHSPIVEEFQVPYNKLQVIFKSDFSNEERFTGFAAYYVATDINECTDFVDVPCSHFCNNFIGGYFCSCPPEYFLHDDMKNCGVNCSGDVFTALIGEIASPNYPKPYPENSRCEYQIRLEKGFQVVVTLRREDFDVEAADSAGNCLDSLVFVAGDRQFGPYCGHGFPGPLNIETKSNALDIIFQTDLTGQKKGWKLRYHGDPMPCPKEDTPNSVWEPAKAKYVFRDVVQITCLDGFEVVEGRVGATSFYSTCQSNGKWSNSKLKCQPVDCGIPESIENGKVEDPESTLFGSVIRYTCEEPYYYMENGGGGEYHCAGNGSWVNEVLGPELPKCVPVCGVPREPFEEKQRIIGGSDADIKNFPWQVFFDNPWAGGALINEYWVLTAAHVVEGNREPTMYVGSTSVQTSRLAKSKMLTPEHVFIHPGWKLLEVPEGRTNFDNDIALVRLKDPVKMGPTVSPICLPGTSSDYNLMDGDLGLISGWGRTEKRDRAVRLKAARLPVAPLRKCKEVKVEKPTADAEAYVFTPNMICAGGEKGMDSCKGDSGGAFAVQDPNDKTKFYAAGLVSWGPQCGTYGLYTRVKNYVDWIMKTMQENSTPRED
Ends that are not written are not given here.
READOUT: IC50 (µM)

Below are worked cases with known answers.
SEQUENCE_CHAIN: IDGRIVEGSRVTFKANRPFLVFI [Peptide 18]
IC50 / µM: 40
--
SEQUENCE_CHAIN: LQRALEILRVTFKANRPFLVFI [Peptide 14]
IC50 / µM: 9

(A) AGRSLNPNRVTFKANRPFLVFIREVPLNTIIFLGRVANP [Peptide 27]
(B) AGRSLNPNRVTFKANRPFLVFI [Peptide 7]
*Q* # min-compare on IC50 between A and B Select an item and report its label.
*A* A
(A: 12 µM, B: 39 µM)

These entries and their values trace back to patent US5157019A.
